OD 450 nm values for the binders below.
- Measured On: HCV E1E2 antigen, isolate UKN1B12.16 (hepatitis C virus, isolate UKN1B12.16)
- Protocol Text: ELISA, Fab on E1E2 antigen

Binder	Units Text	OD 450 nm
Fab P1 (Fab, V domains shown) VH: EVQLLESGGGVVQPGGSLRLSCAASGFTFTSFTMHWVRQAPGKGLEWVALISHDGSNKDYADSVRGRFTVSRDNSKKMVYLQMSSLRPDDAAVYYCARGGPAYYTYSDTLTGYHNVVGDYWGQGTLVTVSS VL: ELTQSPGTLSLSPGERATLSCRASQVRGFLAWFQQKPGQAPRLLIYGASNRAPGIPDRFSGSGSGTDFTLTISRLEPEDFAVYYCQQYGDSPPITFGQGTRLEIKR	OD 450 nm	0.26
Fab N4 (Fab, V domains shown) VH: VQLLEQSGPEVKKPGDSLRISCKMSGDSLVTTWIGWVRQKPGQGLEWMGIINPGDSSTNIYPGDSATRYGPSFQGQVTISIDKSTSTAYLQWNNVKASDTGIYYCARHVPVPISGTFLWREREMHDFGYFDDWGQGTLVIVSS VL: ELTLTQSPGTLSLSPGERATLSCRASQSVSNNYLAWYQQKPGQAPRLLIYGASSRATGIPDRFSGSGSGTGFTLIISRLEPEDFAVYYCQQYGSSSITFGQGTRLEIKR	OD 450 nm	1.06
Fab U1 (Fab, V domains shown) VH: VQLLEQSGPEVKRPGTSVKMSCKISGGASITQAMSWVRQAPGQGLEWMGGITPIFGTVNYAQKILGRVTITADEDTVSLELSSLKSEDTAVYYCAREVNLKTWNLAHPNVFDVWGQGTMLTVSS VL: ELTQSPSSLSASVGDRVTITCRASQSISSFLNWYQQKPGKAPKLLIYAASSLQSGVPPRFSGSGSGTDFTLTISSLQPEDFATYYCQQSYSTPRTFGQGTKLEIKR	OD 450 nm	0.11

Where do these numbers come from? They come from patent US20110311550A1.
